# assay.text: Pharmacokinetics in rats after intragastric administration
# assay.context: SD, rat, plasma, po, 50 mg/kg
readout.label: Cmax (ng/mL)
Write it as a number; the unit ng/mL goes unstated.

Ask | Quick one: give measured Cmax for `[2H]C([2H])([2H])C1=C[C@@H](c2c(O)cc(CCCCCCC)cc2O)[C@H](C(=C)C)CC1`
Reply | 823

Ask | Quick one: give measured Cmax for `[2H]C([2H])=C([C@@H]1CCC(C([2H])([2H])[2H])=C[C@H]1c1c(O)cc(CCCCC)cc1O)C([2H])([2H])[2H]`
Reply | 901

Ask | Quick one: give measured Cmax for `[2H]C([2H])([2H])C1=C[C@@H](c2c(O)cc(CCCCC)cc2O)[C@H](C(=C)C)CC1([2H])[2H]`
Reply | 871

Ask | Quick one: give measured Cmax for `[2H]C([2H])([2H])C1=C[C@H](c2c(O)cc(CCCCC)c(C(=O)O)c2O)[C@@H](C(=C)C)CC1`
Reply | 977

Ask | Quick one: give measured Cmax for `[2H]C([2H])(O)C1=C[C@@H](c2c(O)cc(CCCCC)cc2O)[C@H](C(=C)C)CC1([2H])[2H]`
Reply | 860

Ask | Quick one: give measured Cmax for `C=C(C)[C@@H]1CCC(C)=C[C@H]1c1c(O)cc(CCCCC)cc1O`
Reply | 784

All values here come from patent US20230059087A1.
